Each recorded value in this set is attributed to ChEMBL document CHEMBL1132123.

Reported Ki by item:
- system: Thymidylate synthase (Homo sapiens)
- Sequence (P04818 whole entry): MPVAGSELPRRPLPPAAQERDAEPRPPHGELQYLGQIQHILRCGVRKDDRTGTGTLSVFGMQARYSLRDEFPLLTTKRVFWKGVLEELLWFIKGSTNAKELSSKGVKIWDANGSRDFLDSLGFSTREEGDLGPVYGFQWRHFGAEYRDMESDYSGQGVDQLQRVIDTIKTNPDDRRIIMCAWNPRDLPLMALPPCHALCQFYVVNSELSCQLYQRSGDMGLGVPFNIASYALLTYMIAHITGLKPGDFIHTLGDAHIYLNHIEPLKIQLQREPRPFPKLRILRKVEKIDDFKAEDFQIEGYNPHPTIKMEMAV
- assay.method.text: Inhibitory activity against recombinant human Thymidylate synthase enzyme

>  <compound>
C[C@](CCC(=O)O)(NC(=O)c1ccc(CCC2CNc3nc(N)nc(N)c3C2)o1)C(=O)O (some centres not stated)

>  <Ki>
> 5 µM

$$$$
>  <compound>
C[C@](CCC(=O)O)(NC(=O)c1ccc(CCC2CNc3nc(N)nc(N)c3C2)s1)C(=O)O (some centres not stated)

>  <Ki>
> 5 µM

$$$$

###

- assay.method.text: Vmax/Km value was determined
Quick rule for you: Vmax / Km under 40 gets yes, anything else gets no.

>  <compound>
Nc1nc(O)c2c(n1)NCC(CCc1ccc(C(=O)NC(CCC(=O)O)C(=O)O)cc1)C2 (stereo not given)

>  <assigned.label>
no

$$$$
>  <compound>
C[C@](CCC(=O)O)(NC(=O)c1ccc(CCC2CNc3nc(N)nc(N)c3C2)s1)C(=O)O (stereo not given in full)

>  <assigned.label>
no

$$$$
>  <compound>
CN(Cc1cnc2nc(N)nc(N)c2n1)c1ccc(C(=O)N[C@@H](CCC(=O)O)C(=O)O)cc1

>  <assigned.label>
yes

$$$$
>  <compound>
C[C@](CCC(=O)O)(NC(=O)c1ccc(CCC2CNc3nc(N)nc(N)c3C2)o1)C(=O)O (stereo not given in full)

>  <assigned.label>
yes

$$$$
